Exercise: state measured pIC50 for each of the compounds provided.
target: LC3B (Homo sapiens); assay: Fluorescence Polarization (FP) Assay: displacement of FITC-labeled peptide from GST-LC3B; assay type: binding; details: Fluorescence Polarization assay; GST-LC3B 180 nM, FITC-labeled peptide 18 nM, 25° C.; read-out: IC50
pIC50: −log10 of the molar value.

Request: # query: pIC50 of entry O=C1CC(c2ccccc2)CC(=O)C1=CNC[C@@H](O)[C@H](O)[C@@H](O)[C@@H](O)CO (stereo partly drawn) [Compound 163]
Response: 3.00 to 4.00

Request: What do you get for O=C1Nc2c(F)cccc2C(=O)/C1=C/NCCN1CCN(CCO)CC1 [Compound 195] ?
Response: 4.82 to 5.52

Request: How about this compound: Cc1ccc(C2CC(=O)C(=CO)C(=O)C2)cc1 (stereo not drawn) [Compound 415]
Response: 4.82 to 5.52

Request: # repeat for COc1ccc2[nH]cc(C3CC(=O)C(=CNCCN4CCN(CCO)CC4)C(=O)C3)c2c1 (stereo not drawn) [Compound 186]
Response: 4.82 to 5.52

Request: Please give the result for CN(C)CCNC=C1C(=O)CC(c2ccc(F)cc2F)CC1=O (stereo not drawn) [Compound 301] too.
Response: > 5.52

Request: Thanks! And CN(C)CCNC=C1C(=O)CC(C(=O)Nc2ccccc2)CC1=O (stereo not drawn) [Compound 343] ?
Response: 4.82 to 5.52

Request: Same lookup for O=C1CC(c2c[nH]c3cccc(F)c23)CC(=O)C1=CNCCN1CCN(CCO)CC1 (stereo not drawn) [Compound 24] , please.
Response: > 5.52

Request: Another compound: O=C1CC(c2cccc(Cl)c2)CC(=O)C1=CO (stereo not drawn) [Compound 419]
Response: > 5.52

Request: Check O=C1CC(c2ccccc2Cl)CC(=O)C1=CO (stereo not drawn) [Compound 418] too.
Response: > 5.52

* * *

Give measured IC50 for each item. Keep answers brief.
Target: LC3B (Homo sapiens)
Experiment: Fluorescence Polarization (FP) Assay: displacement of FITC-labeled peptide from GST-LC3B
Type: binding
Conditions: Fluorescence Polarization assay; GST-LC3B 180 nM, FITC-labeled peptide 18 nM, 25° C.; read-out: IC50
Description: The compounds of the present invention for regulating the autophagy-related protein LC3B were tested by Fluorescence Polarization (FP) Assay. Fluorescence Polarization (FP) Assay Test
Counter-ions that a name gives are not always drawn.

Request: What measured IC50 goes with O=C1CC(c2ccc(-c3ccncc3)cc2)CC(=O)C1=CNCCN1CCN(CCO)CC1 (stereo not drawn) ?
Response: < 3 µM

Request: Now try CC1CC(=O)C(=CNCCN2CCN(CCO)CC2)C(=O)C1 (stereo not drawn) .
Response: 100 to 1000 µM

Request: Now try O=C1CC(c2c(Cl)cccc2Cl)CC(=O)C1=CO (stereo not drawn) .
Response: < 3 µM

Request: Lookup CSc1ccc(C2CC(=O)C(=CO)C(=O)C2)cc1 (stereo not drawn)
Response: 3 to 15 µM

Request: Another compound to check: O=C1CC(c2cnc3ccccc3n2)CC(=O)C1=CNCCN1CCN(CCO)CC1 (stereo not drawn)
Response: 3 to 15 µM

Request: What do you have for O=C1CC(c2c[nH]c3ncccc23)CC(=O)C1=CNCCN1CCN(CCO)CC1 (stereo not drawn) ?
Response: 3 to 15 µM

Request: Item: O=C1CC(c2cccc3[nH]ccc23)CC(=O)C1=CO (stereo not drawn) [Compound 460, sodium salt]
Response: < 3 µM

Request: Next compound: CC(=O)OCC(=O)C1=C(O)CC(c2ccccc2)CC1=O (stereo not drawn)
Response: 100 to 1000 µM

Request: Now try Cc1ccccc1C1CC(=O)C(=CNCCN2CCN(CCO)CC2)C(=O)C1 (stereo not drawn) .
Response: 3 to 15 µM

* * *

Field: IC50. Provide a value for each of the compounds that follow.
biological target: LC3B (Homo sapiens, UniProt Q9GZQ8); assay: Fluorescence Polarization (FP) Assay: displacement of FITC-labeled peptide from GST-LC3B; type: binding

Request: Could you share which IC50 value was measured for CN(C)CCNC=C1C(=O)CC(c2cccc(Cl)c2F)CC1=O (stereo not drawn) [Compound 384] ?
Response: < 3 µM

Request: Next compound: CN(C)CCNC=C1C(=O)CC(c2cccc(F)c2Cl)CC1=O (stereo not drawn) [Compound 410]
Response: < 3 µM

Request: Would you kindly repeat that for CN(C)CCNC=C1C(=O)CC(c2cccc(F)c2F)CC1=O (stereo not drawn) [Compound 304] ?
Response: < 3 µM

Request: // repeat for O=C1CC(c2ccccc2)CC(=O)C1=CNC1CCSC1=O (stereo not drawn) [Compound 137] and report
Response: 3 to 15 µM

Request: Param item: CN1C(=O)C(=CNCCN2CCN(CCO)CC2)C(=O)N(C)C1=O [Compound 10]
Response: 100 to 1000 µM

Request: What do we get for CN(C)CCNC=C1C(=O)CC(c2cccc(F)c2Br)CC1=O (stereo not drawn) [Compound 350] ?
Response: < 3 µM

Request: Now the compound CN(C)C=C1C(=O)CC(C2CCCCC2)CC1=O (stereo not drawn) [Compound 262]
Response: < 3 µM

Request: What would you report for COc1ccc(C2CC(=O)C(=CNCCN(C)C)C(=O)C2)c(F)c1F (stereo not drawn) [Compound 403] ?
Response: < 3 µM

Request: # iterate: CN(C)CCNC=C1C(=O)CC(c2cccnc2Br)CC1=O (stereo not drawn) [Compound 338]
Response: < 3 µM

* * *

biological target: LC3B (Homo sapiens, UniProt Q9GZQ8); assay: Fluorescence Polarization (FP) Assay: displacement of FITC-labeled peptide from GST-LC3B; type: binding; details: Fluorescence Polarization assay; GST-LC3B 180 nM, FITC-labeled peptide 18 nM, 25° C.; read-out: IC50
READOUT NAME: IC50

Request: Param item = CCN1CCC[C@H]1CNC=C1C(=O)CC(c2ccccc2)CC1=O (stereo partly drawn) ; retrieve measured IC50.
Response: 3 to 15 µM

Request: Follow-up entry: O=C1CC(c2ccnc3ccccc23)CC(=O)C1=CO (stereo not drawn)
Response: 3 to 15 µM

Request: # repeat for CN(C)CCNC=C1C(=O)CC(c2ccc(F)c(F)c2F)CC1=O (stereo not drawn)
Response: < 3 µM

Request: Now the same for O=C(CO)C1C(=O)CC(c2ccccc2)CC1=O (stereo not drawn)
Response: 15 to 100 µM

Request: Follow-up item: O=C1CC(c2ccccc2-c2ccccc2)CC(=O)C1=CNCCN1CCN(CCO)CC1 (stereo not drawn)
Response: < 3 µM

Request: Entry O=C1CC(c2ccccc2)CC(=O)C1=CNCc1ccc(Cl)cn1 (stereo not drawn) please
Response: 100 to 1000 µM

Request: Moving on to the next molecule: O=C1CC(c2ccccc2)C(F)(F)C(=O)/C1=C/O (stereo not drawn)
Response: 3 to 15 µM

Request: Next molecule up: CC(=O)Nc1ccc(C2CC(=O)C(=CN(C)C)C(=O)C2)cc1 (stereo not drawn)
Response: < 3 µM

Request: Repeat with O=C1CC(c2ccccc2)C(c2ccccc2)C(=O)C1=CNCCN1CCN(CCO)CC1 (stereo not drawn)
Response: 3 to 15 µM

* * *

Can you tell me pIC50 for the items I'm about to list?
target: LC3B (Homo sapiens); assay: Fluorescence Polarization (FP) Assay: displacement of FITC-labeled peptide from GST-LC3B; type: binding; conditions: Fluorescence Polarization assay; GST-LC3B 180 nM, FITC-labeled peptide 18 nM, 25° C.; read-out: IC50
pIC50: −log10 of the molar value. Structures can show the parent of a compound that is named as a salt.

Request: Reported pIC50, compound O=C1CC(c2cccs2)CC(=O)C1=CO (stereo not drawn) [Compound 455, potassium salt] : ____
Response: 4.82 to 5.52

Request: Let us now turn to CN(C)CCNC=C1C(=O)CC(c2c(Cl)ccc(F)c2F)CC1=O (stereo not drawn)
Response: > 5.52

Request: Lookup Cc1cccc2[nH]cc(C3CC(=O)C(=CN(C)C)C(=O)C3)c12 (stereo not drawn)
Response: > 5.52

Request: Then what about the compound CN(C)C=C1C(=O)CC(c2cccs2)CC1=O (stereo not drawn) ?
Response: > 5.52

Request: # iterate: O=C1CC(c2ccccc2-c2ccncc2)CC(=O)C1=CNCCN1CCN(CCO)CC1 (stereo not drawn)
Response: 4.82 to 5.52

Request: Query CONC=C1C(=O)CC(c2ccccc2)CC1=O (stereo not drawn) next
Response: 3.00 to 4.00

Request: Continue with O=C1Nc2cc(C(F)(F)F)ccc2C(=O)/C1=C\NCCN1CCN(CCO)CC1
Response: > 5.52

Request: Let us now turn to CN(C)CCNC=C1C(=O)CC(C(=O)NCc2ccccc2)CC1=O (stereo not drawn)
Response: 4.00 to 4.82

Request: Would you mind doing O=C1CC(c2ccccc2C(F)(F)F)CC(=O)C1=CNCCN1CCN(CCO)CC1 (stereo not drawn) as well?
Response: > 5.52

Ref: patent US11319303B2
